System: cabbage plants
Conditions: in vivo, 6 days, 200 ppm
assay.readout: damage to cabbage plants (phytotoxicity)

## Input Give damage to cabbage plants (phytotoxicity) for the following molecule: CON1CCC2(CC1)C(=O)C(Cl)(c1c(C)ccc(-c3ccc(Cl)cc3)c1C)C(=O)N2C (stereo not drawn) [Compound P1.12]
## Output ≤ 10%

## Input Give damage to cabbage plants (phytotoxicity) for the following molecule: CON1CCC2(CC1)C(=O)C(Cl)(c1cc(Br)c(C)cc1C)C(=O)N2C (stereo not drawn) [Compound P1.2]
## Output ≤ 10%

Further cases:
## Input Give damage to cabbage plants (phytotoxicity) for the following molecule: CON1CCC2(CC1)C(=O)C(Cl)(c1c(C)cc(Br)cc1C)C(=O)N2C (stereo not drawn) [Compound P1.3]
## Output ≤ 10%
